Measured Kd, listed per entry for reference.
# measurement_target: T1, hPD-1-Fc (human, UniProt Q15116 25-167)
# T1 construct: domain: IgV domain; also called human PD-1-Fc; not shown: human IgG1 Fc
# T1 sequence (Q15116 25-167 limits assumed): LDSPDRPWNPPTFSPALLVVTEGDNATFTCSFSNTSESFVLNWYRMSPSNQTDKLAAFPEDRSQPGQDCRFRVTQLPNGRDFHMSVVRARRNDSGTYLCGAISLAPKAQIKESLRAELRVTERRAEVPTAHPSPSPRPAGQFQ
# test_description: SPR Biacore T200, PD-1-Fc immobilised
Use nM as the unit, but write only the number.

// known answers, use as guide
# binder, observable, unit_abbreviation, recorded_result
rows = [
    ("31B1 (antibody, V domains shown, also called 780_38; 33B1 and 31B2 (apparent misprints)) VH: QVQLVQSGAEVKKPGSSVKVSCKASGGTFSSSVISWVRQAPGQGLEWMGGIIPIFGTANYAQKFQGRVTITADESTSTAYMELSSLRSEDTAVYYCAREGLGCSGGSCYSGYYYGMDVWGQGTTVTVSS VL: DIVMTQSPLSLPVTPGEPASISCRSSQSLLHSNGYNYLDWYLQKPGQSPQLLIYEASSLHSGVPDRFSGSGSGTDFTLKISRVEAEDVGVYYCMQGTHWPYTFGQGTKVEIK", "Kd", "nM", 0.688),
    ("32D11 (antibody, V domains shown) VH: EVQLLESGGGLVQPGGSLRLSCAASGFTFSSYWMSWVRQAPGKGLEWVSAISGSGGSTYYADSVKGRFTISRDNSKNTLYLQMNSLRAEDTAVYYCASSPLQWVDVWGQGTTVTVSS VL: DIQMTQSPSSLSASVGDRVTITCRASQSINIWLAWYQQKPGKAPKLLIYDASNLETGVPSRFSGSGSGTDFTLTISSLQPEDFATYYCQQGYSFPFTFGPGTKVDIK", "Kd", "nM", 0.554),
]

Kindly review the next binder as well.
What value of Kd has been recorded for this entry: 38A10 (antibody, V domains shown) VH: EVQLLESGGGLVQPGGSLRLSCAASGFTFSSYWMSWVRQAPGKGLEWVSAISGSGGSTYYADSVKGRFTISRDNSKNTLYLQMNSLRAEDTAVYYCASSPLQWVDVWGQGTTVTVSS VL: DIQMTQSPSSLSASVGDRVTITCRASQSISTWLAWYQQKPGKAPKLLIYDASRLQNGVPSRFSGSGSGTDFTLTISSLQPEDFATYYCQQGDSFPFTFGPGTKVDIK
0.834
